From: ChEMBL document CHEMBL5236671

# Test system: MCF7
# method: Antitumor activity against human MCF7 cells assessed as inhibition of cell growth
# Assay type: functional, cell-based
assayReadout: pIC50
Interpret pIC50 as the negative base-10 log of the concentration measured in mol/L.

- compound: "Cc1ccc(NC(=O)c2ccc(CN3CCN(C)CC3)cc2)cc1Nc1nccc(-c2cccnc2)n1"
  endpointResult: 4.59
- compound: "COc1ccc(NC(=O)c2ccc(CN3CCN(C)CC3)cc2)cc1-n1cc(C)nc1C"
  endpointResult: 4.54

input: Which value of pIC50 has been reported for Cc1cn(-c2cc(NC(=O)c3ccc(CN4CCN(C(C)C)CC4)cc3)cc(C(F)(F)F)c2)cn1 in the records?
output: 4.88

input: Which value of pIC50 has been reported for Cc1cn(-c2cc(NC(=O)c3ccc(CN4CCN(C(C)(C)C)CC4)cc3)cc(C(F)(F)F)c2)cn1 in the records?
output: 4.63

input: Which value of pIC50 has been reported for Cc1cn(-c2cc(NC(=O)c3ccc(CN4CCOC[C@@H]4C)cc3)cc(C(F)(F)F)c2)cn1 in the records?
output: 4.62

input: Which value of pIC50 has been reported for CN1CCN(Cc2ccc(C(=O)Nc3cc(-n4ccnc4)cc(C(F)(F)F)c3)cc2)CC1 in the records?
output: 4.54

input: Which value of pIC50 has been reported for Cc1cn(-c2cc(NC(=O)c3ccc(CN4CCCC4)cc3)cc(C(F)(F)F)c2)cn1 in the records?
output: 4.42

input: Which value of pIC50 has been reported for Cc1cn(-c2cc(NC(=O)c3ccc(CN4CC(C)OC(C)C4)cc3)cc(C(F)(F)F)c2)cn1 (stereo not drawn) in the records?
output: 4.39

input: Which value of pIC50 has been reported for Cc1cn(-c2cc(NC(=O)c3ccc(CN4CCN(C)CC4)cc3)cc(C(F)(F)F)c2)cn1 in the records?
output: 4.72

input: Which value of pIC50 has been reported for CCCCN1CCN(Cc2ccc(C(=O)Nc3cc(-n4ccnc4)cc(C(F)(F)F)c3)cc2)CC1 in the records?
output: 4.52

input: Which value of pIC50 has been reported for CCCCN1CCN(Cc2ccc(C(=O)Nc3cc(-n4cnc(C)c4)cc(C(F)(F)F)c3)cc2)CC1 in the records?
output: 4.70

input: Which value of pIC50 has been reported for Cc1cn(-c2cc(NC(=O)c3ccc(CN4CCN(C)CC4)cc3)cc(C(F)(F)F)c2)c(C)n1 in the records?
output: 5.02
